# ASSAY_METHOD_TEXT: yeast display, Sf9 membrane polyspecificity reagent, FACS + sequencing; frameworks hold sequencing errors
RESULT_TYPE: polyreactivity (PSR sort gate)

Worked set:
1. QVQRVESGGGLVQAGGSLRLSCAASGFIFYGNTMGWYREAPGKERELVASITSGSSTHYAYSVKGRFTISRDNAKNTVYLQMNSLKPEDTAVYYCIVDDIQFGKYDYWGQGTQVTVSS = low polyreactivity
2. QVQLVESGGGLVQAGGRLRLSCAASGSTFVRNAMGWYRQAPGKERELVAAITGTGDSTYYADSVKGRFTISRDNAKNTVYLQMNSLKPEDTAGYYCDANSDAYRYWYDYWGQGTQVTVSS = low polyreactivity
3. QVQLVESGGGLVQARGSLRLSCAASGSIFDDYAMGWYRQAPGKERELVAAISSSGTSTYYADSVKGRFTISRDNAKNTVYLQLNSLKPEDTAVYYCAARSAILKSGYLMEYWGEGTQVTVSS = low polyreactivity
4. QVQLVESGGGFVQAGGSLRLICADSGRIFGRYAMGWYRQAPGKERELVAVISARGARTYYADSVKGRFTLSRDNAKNTDYLQMNSLKPEATEVYYCAVDQYATDDYWGQGTQVTVSS = high polyreactivity
5. QVQLVESGGGLVQAGGSLRLSCAASGFIFDDYAMGWNRQAPGKERELVAAITDSGDGTDYADSVKGRFTISRDNAKNTVYLQMNSLKPEDTAVYYCAAGLWYSYDYWGQGTQVTVSS = high polyreactivity

Task item: Recorded polyreactivity (PSR sort gate) of QVQLVESGGGLVQAGGSLRLSCAASGFIFGFYAMGWYRQAPWKERELVAAITSDGGTYYADSVKGRFTISRDNAKNTVYLQMNSLKPEDTAVYYCAADVLYEVFSWYVGYDYWGQGTQVTVSS , please.
Reply: low polyreactivity

Task item: Recorded polyreactivity (PSR sort gate) of QVQLVESGGGLVQAGGSLRLSCAASGSISTWYAMGWYRQAPGKERELVAAINSGDSTYYADSVKGRFTISRDNAKNTVYLQMNSLKPEDTAVYYCAASSYSSKPFDYWGQGTQVTVSS , please.
Reply: high polyreactivity

Task item: Recorded polyreactivity (PSR sort gate) of QVQLVESGGGLVQAGGSLRLSCAASGYIFYRYAMGWYRQAPGKEREFVASITKRGGRTFYADSVKGRFTISRDNAKNTVYLQMNSLKPEDTAVYYCARKAEYGTDMGYWGQGTQVTVSS , please.
Reply: high polyreactivity

Task item: Recorded polyreactivity (PSR sort gate) of QVQLVESGGGLVQAGGSLRLSCAASGRTFWVYAMGWYRQAPGKERELVAAISWRAGSTYYADSVKGRFTISRDNAKNTVYLLMNSLKPEVTAVYYCAAETYTTLDYWGQGTQVTVSS , please.
Reply: high polyreactivity

Task item: Recorded polyreactivity (PSR sort gate) of QVQLVESGGGLVQAGGSLRLSCAASGRIFVDNTMGWYRQAPGKERELVAVITSGGSTNYADSVKGRFTISRDNAKNTVYLQMNSLKPEDTAVYYCATEPGGYRFDDRPFQYGYWGQGTQVTVSS , please.
Reply: low polyreactivity

Task item: Recorded polyreactivity (PSR sort gate) of QVQLVESGGGLVQAGGSLRLSCAASGRTFQYYAMGWYRQAPGKERELVAAISWSGASTYYADSVKGRFTISRDNAKNTVYLQMNSLKPEDTAVYYCAVKAGGSRYGYWGQGTHVTVSS , please.
Reply: high polyreactivity
